Tested on: COLO 205 colon
Assay: NCI-60 one-dose screen, 48 h
Conditions: 10 µM unless noted
The panel holds about 83,000 compounds, 20% with a hit somewhere; the sample as a whole holds those more often. The source made the active and inactive calls. The calls were made as follows: active = growth percent below 10; inactive = the rest.
Returns: one label drawn from Yes (active), No (inactive)

Input line: Hello, I am checking results. What call was entered for C[C@H]1[C@H](C)CC[C@]2(COC(=O)CCC(=O)O)CC[C@]3(C)C(=CC[C@@H]4[C@@]5(C)CCCNC(C)(C)[C@@H]5CC[C@]43C)[C@H]12 ?
Output line: No

Input line: Check the results log: what was the call for O=S(=O)(/N=c1/n(-c2ccccc2)nc2n1CCN2C1=NCCN1)c1ccc(-c2ccccc2)cc1 ?
Output line: No

Input line: Outcome logged for COc1ccc(C(=O)/C=C/c2ccccn2)c(O)c1 in this assay:
Output line: No

Input line: Returns: the outcome recorded for CCN(CC)c1ccc(/C=C/c2ccc3cc(C)ccc3[n+]2CC)cc1 in this assay.
Output line: Yes

Input line: What outcome does the record of this test show for Nc1ccc2c(c1)Cc1cc(NC(=O)C(F)(F)F)ccc1-2 ?
Output line: No

Input line: Which outcome was entered for the compound O=[N+]([O-])c1cc([N+](=O)[O-])c(C(F)(F)F)cc1NN=C(c1ccc(O)cc1)c1ccc(O)cc1 in this test?
Output line: Yes

Input line: Short answer needed: outcome of this test for Cn1cc(-c2nnc(-c3ccccc3)s2)c2cc(Br)cnc21 ?
Output line: No

Input line: Returns: the outcome recorded for O=C(N/N=C/c1ccc([N+](=O)[O-])cc1)c1ccc(Br)o1 in this assay.
Output line: No

Input line: Which outcome did this test record for the compound CSc1cccc([N+](=O)[O-])c1 ?
Output line: No

Input line: // param item: Cn1cc(-c2noc(-c3cn(C)c4ncc(Br)cc34)n2)c2cc(Cl)ccc21 ; yields the recorded call
Output line: No

Input line: Returns: the outcome recorded for O=C(N/N=C\c1cc(Cl)ccc1O)N/N=C/c1cc(Cl)ccc1O in this assay.
Output line: No

Input line: Check the results log: what was the call for COC(=O)[C@]1(C)CC[C@]2(C)CC[C@]3(C)C(=CC(=O)[C@@H]4[C@@]5(C)CCC(=O)NC(C)(C)[C@@H]5CC[C@]43C)[C@@H]2C1 ?
Output line: Yes

Input line: How was CC1Cc2c(Cl)ncnc2N(C)c2ccc(Cl)cc21 (centres undefined) classified in this test?
Output line: Yes
